src = ChEMBL document CHEMBL1152538

System: Streptococcus mitis
procedure.details: Antibacterial activity against Streptococcus mitis ATCC 33399 after 24 to 96 hrs by well microplate assay
Type: functional
Where a SMILES comes first, the peptide text is derived from it. [ ]: non-standard residue; d: D form. The star is where a group is joined. Phe(4-NH2) = Nc1ccc(C[C@H](N)C(=O)O)cc1; Orn = NCCC[C@H](N)C(=O)O; PhAc = O=C(Cc1ccccc1)*
readout.name: MIC (µg/mL)
Give a bare numeral; the unit µg/mL is implied.

[[record]]
molecule = "CC(C)C[C@@H]1NC(=O)[C@H](CCCN)NC(=O)[C@H](C(C)C)NC(=O)[C@@H]2CCCN2C(=O)[C@H](Cc2ccccc2)NC(=O)[C@H](CC(C)C)NC(=O)[C@H](CCCN)NC(=O)[C@H](C(C)C)NC(=O)[C@@H]2CCCN2C(=O)[C@H](Cc2ccc(NC(=O)Cc3ccccc3)cc2)NC1=O (cyclo(FPV[Orn]L[Phe(4-NH2)](PhAc)PV[Orn]L))"
readout_name = "MIC"
reading = 16


// CC(C)C[C@@H]1NC(=O)[C@H](CCCN)NC(=O)[C@H](C(C)C)NC(=O)[C@@H]2CCCN2C(=O)[C@H](Cc2ccccc2)NC(=O)[C@H](CC(C)C)NC(=O)[C@H](CCCN)NC(=O)[C@H](C(C)C)NC(=O)[C@@H]2CCCN2C(=O)[C@H](Cc2ccc(N)cc2)NC1=O (cyclo(FPV[Orn]L[Phe(4-NH2)]PV[Orn]L)) : MIC value = 32

---

procedure.details: Cytotoxicity against human erythrocytes assessed as hemolysis at 25 uM after 4 hrs by twofold dilution assay
Type: cell-based, Erythrocyte
test.context: read-out: Activity
Where a SMILES comes first, the peptide text is derived from it. [ ]: non-standard residue; d: D form. The star is where a group is joined. Phe(4-NH2) = Nc1ccc(C[C@H](N)C(=O)O)cc1; Orn = NCCC[C@H](N)C(=O)O; Piv = CC(C)(C)C(=O)*
readout.name: hemolysis at 4 h, 25 µM (%)
Give a bare numeral; the unit % is implied.

// CC(C)C[C@@H]1NC(=O)[C@H](CCCN)NC(=O)[C@H](C(C)C)NC(=O)[C@@H]2CCCN2C(=O)[C@H](Cc2ccccc2)NC(=O)[C@H](CC(C)C)NC(=O)[C@H](CCCN)NC(=O)[C@H](C(C)C)NC(=O)[C@@H]2CCCN2C(=O)[C@H](Cc2ccc(NC(=O)C(C)(C)C)cc2)NC1=O (cyclo(FPV[Orn]L[Phe(4-NH2)](Piv)PV[Orn]L)) : hemolysis at 4 h, 25 µM value = 50

---

Test system: Staphylococcus aureus
procedure.details: Antibacterial activity against Staphylococcus aureus 7323 after 24 to 96 hrs by well microplate assay
Format: functional
Where a SMILES comes first, the peptide text is derived from it. [ ]: non-standard residue; d: D form. The star is where a group is joined. Phe(4-NO2) = N[C@@H](Cc1ccc([N+](=O)[O-])cc1)C(=O)O; Phe(4-NH2) = Nc1ccc(C[C@H](N)C(=O)O)cc1; Orn = NCCC[C@H](N)C(=O)O; Propionyl = CCC(=O)*
readout.name: MIC (µg/mL)
Give a bare numeral; the unit µg/mL is implied.

Example cases with answers are listed next.
[[record]]
compound = "CC(C)C[C@@H]1NC(=O)[C@H](CCCN)NC(=O)[C@H](C(C)C)NC(=O)[C@@H]2CCCN2C(=O)[C@@H](Cc2ccccc2)NC(=O)[C@H](CC(C)C)NC(=O)[C@H](CCCN)NC(=O)[C@H](C(C)C)NC(=O)[C@@H]2CCCN2C(=O)[C@@H](Cc2ccccc2)NC1=O [GRAMICIDIN S] (cyclo(L[dF]PV[Orn]L[dF]PV[Orn]))"
reading = 8

[[record]]
compound = "CCC(=O)Nc1ccc(C[C@@H]2NC(=O)[C@H](CC(C)C)NC(=O)[C@H](CCCN)NC(=O)[C@H](C(C)C)NC(=O)[C@@H]3CCCN3C(=O)[C@H](Cc3ccccc3)NC(=O)[C@H](CC(C)C)NC(=O)[C@H](CCCN)NC(=O)[C@H](C(C)C)NC(=O)[C@@H]3CCCN3C2=O)cc1 (cyclo(FPV[Orn]L[Phe(4-NH2)](Propionyl)PV[Orn]L))"
reading = 32


Consider the record given below.
// CC(C)C[C@@H]1NC(=O)[C@H](CCCN)NC(=O)[C@H](C(C)C)NC(=O)[C@@H]2CCCN2C(=O)[C@H](Cc2ccccc2)NC(=O)[C@H](CC(C)C)NC(=O)[C@H](CCCN)NC(=O)[C@H](C(C)C)NC(=O)[C@@H]2CCCN2C(=O)[C@H](Cc2ccc([N+](=O)[O-])cc2)NC1=O (cyclo(FPV[Orn]L[Phe(4-NO2)]PV[Orn]L)) : MIC value = 16

---

Test system: Staphylococcus aureus
procedure.details: Antibacterial activity against Staphylococcus aureus 7323 after 24 to 96 hrs by well microplate assay
Type: functional
Where a SMILES comes first, the peptide text is derived from it. [ ]: non-standard residue; d: D form. The star is where a group is joined. Diphenylacetyl = O=C(C(c1ccccc1)c1ccccc1)*; Phe(4-NH2) = Nc1ccc(C[C@H](N)C(=O)O)cc1; Orn = NCCC[C@H](N)C(=O)O
readout.name: MIC (µg/mL)
Give a bare numeral; the unit µg/mL is implied.

Tested on Staphylococcus aureus: CC(C)C[C@@H]1NC(=O)[C@H](CCCN)NC(=O)[C@H](C(C)C)NC(=O)[C@@H]2CCCN2C(=O)[C@H](Cc2ccccc2)NC(=O)[C@H](CC(C)C)NC(=O)[C@H](CCCN)NC(=O)[C@H](C(C)C)NC(=O)[C@@H]2CCCN2C(=O)[C@H](Cc2ccc(NC(=O)C(c3ccccc3)c3ccccc3)cc2)NC1=O (cyclo(FPV[Orn]L[Phe(4-NH2)](Diphenylacetyl)PV[Orn]L)) . Observed MIC: 16

---

Test system: Staphylococcus aureus
procedure.details: Antibacterial activity against Staphylococcus aureus 7323 after 24 to 96 hrs by well microplate assay
Type: functional
*1 amine or outer side, *2 acyl side, *3 side chain or, on linkers, in order; H or OH if unused. Where a SMILES comes first, the peptide text is derived from it. [ ]: non-standard residue; d: D form. The star is where a group is joined. X4 = O=C([C@H](Cc1ccc(N(Cc2ccccc2)Cc2ccccc2)cc1)N[*:1])[*:2]; X5 = O=C(C(c1ccccc1)(c1ccccc1)c1ccccc1)*; Phe(4-NH2) = Nc1ccc(C[C@H](N)C(=O)O)cc1; Orn = NCCC[C@H](N)C(=O)O
readout.name: MIC

Example cases with answers are listed next.
[[record]]
compound = "CC(C)C[C@@H]1NC(=O)[C@H](CCCN)NC(=O)[C@H](C(C)C)NC(=O)[C@@H]2CCCN2C(=O)[C@H](Cc2ccccc2)NC(=O)[C@H](CC(C)C)NC(=O)[C@H](CCCN)NC(=O)[C@H](C(C)C)NC(=O)[C@@H]2CCCN2C(=O)[C@H](Cc2ccc(N)cc2)NC1=O (cyclo(FPV[Orn]L[Phe(4-NH2)]PV[Orn]L))"
tested_system = "Staphylococcus aureus"
reading = "32 µg/mL"

[[record]]
compound = "CC(C)C[C@@H]1NC(=O)[C@H](CCCN)NC(=O)[C@H](C(C)C)NC(=O)[C@@H]2CCCN2C(=O)[C@H](Cc2ccccc2)NC(=O)[C@H](CC(C)C)NC(=O)[C@H](CCCN)NC(=O)[C@H](C(C)C)NC(=O)[C@@H]2CCCN2C(=O)[C@H](Cc2ccc(N(Cc3ccccc3)Cc3ccccc3)cc2)NC1=O (cyclo(FPV[Orn]L[X4]PV[Orn]L))"
tested_system = "Staphylococcus aureus"
reading = "> 64 µg/mL"


// CC(C)C[C@@H]1NC(=O)[C@H](CCCN)NC(=O)[C@H](C(C)C)NC(=O)[C@@H]2CCCN2C(=O)[C@H](Cc2ccccc2)NC(=O)[C@H](CC(C)C)NC(=O)[C@H](CCCN)NC(=O)[C@H](C(C)C)NC(=O)[C@@H]2CCCN2C(=O)[C@H](Cc2ccc(NC(=O)C(c3ccccc3)(c3ccccc3)c3ccccc3)cc2)NC1=O (cyclo(FPV[Orn]L[Phe(4-NH2)](X5)PV[Orn]L)) : MIC value = > 64 µg/mL

---

System: Enterococcus faecalis
procedure.details: Antibacterial activity against Enterococcus faecalis 1131 after 24 to 96 hrs by well microplate assay
Format: functional
Where a SMILES comes first, the peptide text is derived from it. [ ]: non-standard residue; d: D form. Phe(4-NH2) = Nc1ccc(C[C@H](N)C(=O)O)cc1; Orn = NCCC[C@H](N)C(=O)O
readout.name: MIC (µg/mL)
Give a bare numeral; the unit µg/mL is implied.

Tested on Enterococcus faecalis: CC(C)C[C@@H]1NC(=O)[C@H](CCCN)NC(=O)[C@H](C(C)C)NC(=O)[C@@H]2CCCN2C(=O)[C@H](Cc2ccccc2)NC(=O)[C@H](CC(C)C)NC(=O)[C@H](CCCN)NC(=O)[C@H](C(C)C)NC(=O)[C@@H]2CCCN2C(=O)[C@H](Cc2ccc(N)cc2)NC1=O (cyclo(FPV[Orn]L[Phe(4-NH2)]PV[Orn]L)) . Observed MIC: 64
